Where these numbers come from: ChEMBL document CHEMBL5244204

Molecular target: Arachidonate 5-lipoxygenase-activating protein (Homo sapiens, UniProt P20292)
Sequence (P20292 whole entry): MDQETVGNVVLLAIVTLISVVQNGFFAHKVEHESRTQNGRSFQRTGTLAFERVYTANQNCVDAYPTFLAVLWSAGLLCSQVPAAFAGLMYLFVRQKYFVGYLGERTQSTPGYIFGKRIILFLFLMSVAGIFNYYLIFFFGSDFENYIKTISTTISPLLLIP
Assay: Inhibition of FLAP in human PMNL cells assessed as inhibition of 5-LO product LT formation preincubated for 15 mins followed by calcium ionophore A23187 addition and measured after 10 min by HPLC analysis
Assay type: cell-based
OBSERVED_PROPERTY: IC50 (µM)
Report the figure in µM without appending any unit label.

Task item: Quick one: IC50 for CC1(C)Cc2c(-c3ccccc3)c(-c3ccc(Cl)cc3)c(CC(=O)O)n2C1 ?
Reply: 1.7

---

Molecular target: Arachidonate 5-lipoxygenase-activating protein (Homo sapiens)
Assay: Inhibition of FLAP in human whole blood assessed as reduction of LTB4 formation preincubated with enzyme for 15 mins followed by calcimycin addition and measured after 30 mins by HTRF assay
Type: tissue-based
Provide the reported pIC50 of each item.
Would you please state pIC50, meaning minus log10 of the concentration in mol/L, as a bare number?

Task item: Return reported pIC50; argument: CNC(=O)c1ccc(C#N)cc1-c1nc2cc(-c3cnc(N)nc3)ccc2n1C(C)(C)C
Reply: 7.03

Task item: Given the entry CC(C)(C)n1c(-c2ccccc2C(=O)Nc2ccccn2)nc2cc(-c3cnc(N)nc3)ccc21 , report its measured pIC50.
Reply: 5.57

Task item: Which pIC50 reading was recorded for the compound CNC(=O)c1ccc(F)cc1-c1nc2cc(-c3cnc(N)nc3)ccc2n1C(C)(C)C ?
Reply: 6.89

---

Test: Inhibition of Leukotriene biosynthesis in human PMNL cells preincubated for 2 mins followed by calcium ionophore A23187 addition and measured after 5 mins by radioimmunoassay
Format: functional, cell-based
OBSERVED_PROPERTY: pIC50
By convention, pIC50 is the negative base-10 log of a molar concentration.

Task item: Consider the compound shown here: O=C(O)CSC(CCCc1ccccc1)(Cc1ccccc1)c1ccc(OCc2ccc3ccccc3n2)cc1 (configuration not stated) What is its recorded pIC50?
Reply: 8.40

Task item: I'd like to know its pIC50. The compound in question is c1ccc(COCC(OCc2ccccc2)c2ccc(OCc3ccc4ccccc4n3)cc2)cc1 (configuration not stated)
Reply: 7.52

---

Biological target: UniProt P12527
Sequence (P12527 whole entry): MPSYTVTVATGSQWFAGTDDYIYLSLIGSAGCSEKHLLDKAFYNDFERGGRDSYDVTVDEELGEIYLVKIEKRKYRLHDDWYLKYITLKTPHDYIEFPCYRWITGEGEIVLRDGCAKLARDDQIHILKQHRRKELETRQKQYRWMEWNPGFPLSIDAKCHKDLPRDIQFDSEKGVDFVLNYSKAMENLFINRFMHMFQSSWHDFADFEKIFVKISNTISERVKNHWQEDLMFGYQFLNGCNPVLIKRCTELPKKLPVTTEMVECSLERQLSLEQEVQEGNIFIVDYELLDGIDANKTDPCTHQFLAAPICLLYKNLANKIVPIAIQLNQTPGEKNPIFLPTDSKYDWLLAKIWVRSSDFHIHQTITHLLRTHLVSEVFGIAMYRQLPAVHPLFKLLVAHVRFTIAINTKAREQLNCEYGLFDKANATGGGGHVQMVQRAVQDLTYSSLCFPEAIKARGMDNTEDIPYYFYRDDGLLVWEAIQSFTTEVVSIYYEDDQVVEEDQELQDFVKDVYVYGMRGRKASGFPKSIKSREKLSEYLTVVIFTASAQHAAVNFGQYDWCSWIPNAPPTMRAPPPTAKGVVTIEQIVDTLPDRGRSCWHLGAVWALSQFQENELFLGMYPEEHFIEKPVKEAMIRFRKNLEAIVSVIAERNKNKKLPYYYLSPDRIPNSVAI
Test: Inhibition of 5-LOX in […] rat PMNL cells assessed as reduction in 5-LO product level incubated for 3 mins by scintillation counting method
OBSERVED_PROPERTY: IC50

Task item: Which IC50 reading was recorded for the compound O=C(O)CSC(CCCc1ccc(Cl)cc1)c1ccc(OCc2ccc3ccccc3n2)cc1 (configuration not stated) ?
Reply: 20 nM

Task item: Need IC50, item O=C(O)CSC(CCCc1ccccc1)c1ccc(OCc2ccc3ccccc3n2)cc1 (configuration not stated)
Reply: 70 nM

---

Biological target: UniProt P20292
Test: Displacement of [125I]-L-691831 from recombinant human FLAP expressed in Sf9 insect cells incubated for 2 hr by scintillation proximity assay
OBSERVED_PROPERTY: IC50 (nM)
Give your result in nM as a bare value.

Task item: Requested read-out: IC50. Entry: Cc1ccn(-c2ccc(Cl)cc2-c2nc3cc(-c4cnc(N)nc4)ccc3n2C(C)(C)C)n1
Reply: 0.7
